Values were extracted from paper PMC9516332.

target-entity: panel of 255 wild-type kinases (Homo sapiens, UniProt Q15418)
Sequence (Q15418 whole entry): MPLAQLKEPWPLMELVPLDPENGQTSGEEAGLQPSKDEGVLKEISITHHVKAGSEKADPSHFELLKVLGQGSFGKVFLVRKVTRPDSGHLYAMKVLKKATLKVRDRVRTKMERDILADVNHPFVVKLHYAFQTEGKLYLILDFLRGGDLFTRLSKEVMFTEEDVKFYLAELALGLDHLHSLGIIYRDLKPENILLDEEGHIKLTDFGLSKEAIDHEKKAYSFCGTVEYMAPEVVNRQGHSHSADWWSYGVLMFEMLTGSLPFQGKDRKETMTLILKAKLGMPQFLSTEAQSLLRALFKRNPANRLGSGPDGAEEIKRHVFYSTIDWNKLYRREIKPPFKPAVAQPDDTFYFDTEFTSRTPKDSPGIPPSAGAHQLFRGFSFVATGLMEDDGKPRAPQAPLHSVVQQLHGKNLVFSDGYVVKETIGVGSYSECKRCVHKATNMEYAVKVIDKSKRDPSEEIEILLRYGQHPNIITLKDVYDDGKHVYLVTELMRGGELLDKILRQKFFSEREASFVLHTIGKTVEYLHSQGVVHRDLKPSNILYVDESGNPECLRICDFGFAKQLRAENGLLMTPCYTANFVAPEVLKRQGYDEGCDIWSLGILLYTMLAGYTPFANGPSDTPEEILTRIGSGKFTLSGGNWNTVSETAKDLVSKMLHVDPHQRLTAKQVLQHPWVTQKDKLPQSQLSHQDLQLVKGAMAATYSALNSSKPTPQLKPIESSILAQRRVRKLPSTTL
procedure-details: Kinase panel profiling at 1 µmol/L (MSA or IMAP), percentage inhibition
Assay type: biochemical
condition-description: kinase RSK1; 1 µmol/L single concentration; read-out: %-inhibition at 1 µmol/L, RSK1
property: inhibition at 1 µM (%)
Write it as a number; the unit % goes unstated.

Recall the recorded inhibition at 1 µM for `Cc1nc(NC(=O)N2CCC[C@H]2C(N)=O)sc1-c1ccnc(C(C)(C)C(F)(F)F)c1` with panel of 255 wild-type kinases (Homo sapiens, UniProt Q15418) and state it.
-0.527

Record: `CCn1c(=O)c(-c2cc(NC(=O)Nc3ccccc3)c(F)cc2Br)cc2cnc(NC)cc21`
8

Now try `COc1cc2ncnc(Nc3ccc(F)c(Cl)c3)c2cc1NC(=O)/C=C/CN1CCCCC1` .
4.37

Another molecule: `Cc1cc(Nc2ncnc3ccc(NC4=NC(C)(C)CO4)cc23)ccc1Oc1ccn2ncnc2c1`
-4.66

How about `C[C@H](Nc1ncnc2nc[nH]c12)c1cc2cccc(Cl)c2c(=O)n1-c1ccccc1` ?
-0.755

Here is the next molecule: `Cn1cnc2c(F)c(Nc3ccc(Br)cc3F)c(C(=O)NOCCO)cc21`
-5.55

Try this molecule too: `CCc1nc(C(N)=O)c(Nc2ccc(N3CCC(N4CCN(C)CC4)CC3)c(OC)c2)nc1NC1CCOCC1`
54

Please do the same for `Cn1cc(-c2cc3c(N4CCN(c5ncc([C@@](C)(N)c6ccc(F)cc6)cn5)CC4)ncnn3c2)cn1` as well.
-7

Also, `C=CC(=O)N1CCC([C@@H]2CCNc3c(C(N)=O)c(-c4ccc(Oc5ccccc5)cc4)nn32)CC1` please.
-2.79

Entry `COc1ccc(CN2C3CC2CN(c2ccc(-c4cc(OCC(C)(C)O)cn5ncc(C#N)c45)cn2)C3)cn1` please
51

* * *

System: 134 cancer cell lines
procedure-details: Cell viability assay (ATPlite, 72 hours), IC50 on cancer cell line panel
condition-description: Homo sapiens, SHP77, read-out: IC50 in cell proliferation assay, cell line SHP-77
property: IC50

Which IC50 value belongs to CO[C@]1(C(=O)N[C@@H](C)c2ccc(-n3cc(F)cn3)nc2)CC[C@H](c2nc(C)cc(Nc3cc(C)[nH]n3)n2)CC1 [pralsetinib] ?
> 31.6 µM

Next: Cc1nc(NC(=O)N2CCC[C@H]2C(N)=O)sc1-c1ccnc(C(C)(C)C(F)(F)F)c1 [alpelisib]
> 31.6 µM

Again, but for O=C(c1ccc(F)c(F)c1Nc1ccc(I)cc1F)N1CC(O)([C@@H]2CCCCN2)C1 [cobimetinib]
> 10 µM

Continue with CN1CCN(c2ccc(C(=O)Nc3n[nH]c4ccc(Cc5cc(F)cc(F)c5)cc34)c(NC3CCOCC3)c2)CC1 [entrectinib]
12.7 µM

Okay, and COc1cc2ncnc(Nc3ccc(F)c(Cl)c3)c2cc1NC(=O)/C=C/CN1CCCCC1 [dacomitinib] ?
5.08 µM

Param item: COC(=O)N[C@@H](C)CNc1nccc(-c2cn(C(C)C)nc2-c2cc(Cl)cc(NS(C)(=O)=O)c2F)n1 [encorafenib]
> 31.6 µM

* * *

target-entity: panel of 255 wild-type kinases (Homo sapiens)
Sequence (P43403 1-619): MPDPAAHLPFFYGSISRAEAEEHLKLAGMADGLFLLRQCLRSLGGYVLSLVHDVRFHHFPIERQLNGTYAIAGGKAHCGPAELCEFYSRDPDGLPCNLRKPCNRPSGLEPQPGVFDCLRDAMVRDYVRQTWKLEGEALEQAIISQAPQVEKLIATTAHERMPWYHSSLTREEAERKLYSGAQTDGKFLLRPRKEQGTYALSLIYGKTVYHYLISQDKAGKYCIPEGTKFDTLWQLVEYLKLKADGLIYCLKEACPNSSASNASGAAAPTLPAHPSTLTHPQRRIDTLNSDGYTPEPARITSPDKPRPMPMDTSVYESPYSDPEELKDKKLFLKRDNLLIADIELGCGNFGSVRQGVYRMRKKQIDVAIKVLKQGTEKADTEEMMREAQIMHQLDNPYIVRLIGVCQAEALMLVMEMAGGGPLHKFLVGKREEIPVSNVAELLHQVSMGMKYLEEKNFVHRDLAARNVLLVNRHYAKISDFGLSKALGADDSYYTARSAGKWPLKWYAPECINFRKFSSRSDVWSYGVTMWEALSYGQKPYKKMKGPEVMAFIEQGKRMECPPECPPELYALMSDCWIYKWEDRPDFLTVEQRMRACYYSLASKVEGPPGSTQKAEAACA
procedure-details: Kinase panel profiling at 1 µmol/L (MSA or IMAP), percentage inhibition
Type: biochemical
condition-description: kinase ZAP70; 1 µmol/L single concentration; read-out: %-inhibition at 1 µmol/L, ZAP70
property: inhibition at 1 µM (%)
Use % as the unit, but write only the number.

# input molecule: `O=C(Nc1cnn2ccc(N3CCC[C@@H]3c3cc(F)ccc3F)nc12)N1CC[C@H](O)C1` ; wanted: its inhibition at 1 µM
4.69

And for `COc1ccc(CN2C3CC2CN(c2ccc(-c4cc(OCC(C)(C)O)cn5ncc(C#N)c45)cn2)C3)cn1` ?
8

Try this molecule next: `CCN1C(=O)N(c2c(F)c(OC)cc(OC)c2F)Cc2cnc3[nH]c(CN4CCOCC4)cc3c21`
2
